target.under.test: PRMT3 (Homo sapiens)
Construct: GST-tagged PRMT3; made in house; host or cells: E. coli BL21(DE3) Gold
Sequence (O60678 with tags, fused parts or gaps): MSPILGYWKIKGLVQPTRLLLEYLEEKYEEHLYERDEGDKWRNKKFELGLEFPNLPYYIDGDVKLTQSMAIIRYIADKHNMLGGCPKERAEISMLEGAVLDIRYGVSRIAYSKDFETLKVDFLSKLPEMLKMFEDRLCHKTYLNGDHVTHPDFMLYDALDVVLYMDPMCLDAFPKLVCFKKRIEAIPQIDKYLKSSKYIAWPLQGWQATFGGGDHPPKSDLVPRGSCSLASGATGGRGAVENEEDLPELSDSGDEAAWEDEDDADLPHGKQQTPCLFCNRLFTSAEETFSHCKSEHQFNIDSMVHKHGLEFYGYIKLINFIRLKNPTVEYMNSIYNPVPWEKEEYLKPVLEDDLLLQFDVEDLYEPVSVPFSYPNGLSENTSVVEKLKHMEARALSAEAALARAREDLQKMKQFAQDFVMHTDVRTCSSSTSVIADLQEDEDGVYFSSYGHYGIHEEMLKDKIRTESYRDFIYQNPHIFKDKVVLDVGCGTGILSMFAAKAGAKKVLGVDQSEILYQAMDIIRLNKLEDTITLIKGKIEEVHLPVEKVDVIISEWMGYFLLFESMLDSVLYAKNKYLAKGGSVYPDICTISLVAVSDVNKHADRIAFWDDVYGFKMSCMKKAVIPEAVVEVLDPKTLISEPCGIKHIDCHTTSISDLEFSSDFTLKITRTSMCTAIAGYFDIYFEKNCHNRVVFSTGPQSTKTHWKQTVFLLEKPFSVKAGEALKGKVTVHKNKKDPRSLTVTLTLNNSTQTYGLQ
assay.summary: PRMT3 Biochemical Assay (3H-SAM Flashplate, peptide substrate)
settings: 30 min preincubation, room temperature
From the text: S-adenosylmethionine (SAM), S-adenosylhomocysteine (SAH), bicine, Tween20, dimethylsulfoxide (DMSO), bovine skin gelatin (BSG), isopropyl-β-D-thiogalactopyranoside (IPTG), and Tris(2-carboxyethyl)phosphine hydrochloride solution (TCEP) were purchased from Sigma-Aldrich at the highest level of purity possible. ^3H-SAM was purchase from American Radiolabeled Chemicals with a specific activity of 80 Ci/mmol. 384-well streptavidin Flashplates were purchased from PerkinElmer. […]
measurement.name: IC50

Give IC50 for each listed item.
1. CN(CCN)Cc1c[nH]nc1-c1cnn(-c2ccccc2)c1
2. CN(CCN)Cc1c[nH]nc1-c1cn[nH]c1
3. CC(C)Cn1cc(-c2n[nH]cc2CN(C)CCN)cn1

["3.01 to 10 µM", "≥ 10 µM", "3.01 to 10 µM"]

Give IC50 for each listed item.
1. CN(CCN)Cc1c[nH]nc1-c1cnc2[nH]ccc2c1
2. CN(CCN)Cc1c[nH]nc1-c1ccoc1

1. 1.01 to 3 µM
2. ≥ 10 µM

====

Exercise: state measured IC50 for each of the molecules provided.
target.under.test: PRMT8 (Homo sapiens, UniProt Q9NR22)
Construct: Full-length human PRMT8 (NM_019854.4) isoform 1 transcript clone; made in house; host or cells: E. coli BL21(DE3) Gold
Sequence (Q9NR22 whole entry, canonical isoform): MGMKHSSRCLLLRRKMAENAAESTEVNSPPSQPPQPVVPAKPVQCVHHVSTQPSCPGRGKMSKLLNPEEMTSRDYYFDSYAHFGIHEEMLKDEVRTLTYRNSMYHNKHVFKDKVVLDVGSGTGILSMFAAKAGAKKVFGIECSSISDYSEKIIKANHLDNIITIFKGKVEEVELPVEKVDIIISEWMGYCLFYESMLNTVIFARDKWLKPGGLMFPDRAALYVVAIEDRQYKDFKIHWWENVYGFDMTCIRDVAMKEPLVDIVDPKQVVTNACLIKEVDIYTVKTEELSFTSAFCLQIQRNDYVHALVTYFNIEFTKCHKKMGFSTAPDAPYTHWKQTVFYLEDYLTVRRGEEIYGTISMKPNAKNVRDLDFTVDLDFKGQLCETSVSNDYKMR
assay.summary: PRMT8 Biochemical Assay (3H-SAM Flashplate, peptide substrate)
settings: 30 min preincubation, room temperature

Some molecules with known IC50 results, for comparison:
- structure: "CN(CCN)Cc1c[nH]nc1-c1ccoc1"
  target.under.test: "PRMT8 (Homo sapiens, UniProt Q9NR22)"
  IC50: "1010 to 3000 nM"
- structure: "CC(C)Cn1cc(-c2n[nH]cc2CN(C)CCN)cn1"
  target.under.test: "PRMT8 (Homo sapiens, UniProt Q9NR22)"
  IC50: "101 to 1000 nM"
- structure: "CN(CCN)Cc1c[nH]nc1-c1cn[nH]c1"
  target.under.test: "PRMT8 (Homo sapiens, UniProt Q9NR22)"
  IC50: "1010 to 3000 nM"
- structure: "CN(CCN)Cc1c[nH]nc1-c1cccs1"
  target.under.test: "PRMT8 (Homo sapiens, UniProt Q9NR22)"
  IC50: "3010 to 10000 nM"
- structure: "CN(CCN)Cc1c[nH]nc1-c1cnn(Cc2ccccc2)c1"
  target.under.test: "PRMT8 (Homo sapiens, UniProt Q9NR22)"
  IC50: "101 to 1000 nM"

Give IC50 for each listed item.
1. CN(CCN)Cc1c[nH]nc1-c1cnn(C)c1
2. CN(CCN)Cc1c[nH]nc1-c1ccnn1C
3. Cc1noc(C)c1-c1n[nH]cc1CN(C)CCN
4. CN(CCN)Cc1c[nH]nc1-c1ccc2cnn(C)c2c1
5. CN(CCN)Cc1c[nH]nc1-c1ccc2nccn2c1

1. 3010 to 10000 nM
2. 3010 to 10000 nM
3. ≥ 10000 nM
4. 101 to 1000 nM
5. 101 to 1000 nM

====

target.under.test: PRMT6 (Homo sapiens)
Sequence (Q96LA8 with tags, fused parts or gaps): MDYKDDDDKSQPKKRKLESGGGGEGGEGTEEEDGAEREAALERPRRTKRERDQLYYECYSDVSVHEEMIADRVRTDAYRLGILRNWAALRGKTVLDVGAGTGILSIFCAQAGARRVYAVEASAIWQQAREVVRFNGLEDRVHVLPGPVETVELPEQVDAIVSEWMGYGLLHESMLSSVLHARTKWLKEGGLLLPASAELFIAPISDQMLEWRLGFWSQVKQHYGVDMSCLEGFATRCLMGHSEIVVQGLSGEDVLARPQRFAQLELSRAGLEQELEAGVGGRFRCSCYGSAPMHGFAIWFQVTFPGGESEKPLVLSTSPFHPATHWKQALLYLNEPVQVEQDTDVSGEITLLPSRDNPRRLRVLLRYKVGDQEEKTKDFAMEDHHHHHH
measurement.name: IC50

Some compounds with known IC50 results, for comparison:
- compound: "CN(CCN)Cc1c[nH]nc1-c1cnn(-c2ccccc2)c1 [Compound 17]"
  IC50: "≤ 0.1 µM"
- compound: "CN(CCN)Cc1c[nH]nc1-c1ccsc1 [Compound 3]"
  IC50: "≤ 0.1 µM"
- compound: "CN(CCN)Cc1c[nH]nc1-c1ccco1 [Compound 6]"
  IC50: "0.101 to 1 µM"

Give IC50 for each listed item.
1. CN(CCN)Cc1c[nH]nc1-c1cccc2[nH]ncc12 [Compound 30]
2. Cc1noc(C)c1-c1n[nH]cc1CN(C)CCN [Compound 10]
3. CN(CCN)Cc1c[nH]nc1-c1ccoc1 [Compound 7]
4. CN(CCN)Cc1c[nH]nc1-c1ccc[nH]1 [Compound 29]
5. CN(CCN)Cc1c[nH]nc1-c1ccc2scnc2c1 [Compound 9]
6. CN(CCN)Cc1c[nH]nc1-c1ccc2nccn2c1 [Compound 21]

["≤ 0.1 µM", "≥ 10 µM", "0.101 to 1 µM", "1.01 to 3 µM", "≤ 0.1 µM", "≤ 0.1 µM"]

Attribution: patent US9630961B2
